# maps each entry to its pIC50
MEASURED ON: Neutrophil collagenase (Rattus norvegicus)
Sequence (O88766 whole entry): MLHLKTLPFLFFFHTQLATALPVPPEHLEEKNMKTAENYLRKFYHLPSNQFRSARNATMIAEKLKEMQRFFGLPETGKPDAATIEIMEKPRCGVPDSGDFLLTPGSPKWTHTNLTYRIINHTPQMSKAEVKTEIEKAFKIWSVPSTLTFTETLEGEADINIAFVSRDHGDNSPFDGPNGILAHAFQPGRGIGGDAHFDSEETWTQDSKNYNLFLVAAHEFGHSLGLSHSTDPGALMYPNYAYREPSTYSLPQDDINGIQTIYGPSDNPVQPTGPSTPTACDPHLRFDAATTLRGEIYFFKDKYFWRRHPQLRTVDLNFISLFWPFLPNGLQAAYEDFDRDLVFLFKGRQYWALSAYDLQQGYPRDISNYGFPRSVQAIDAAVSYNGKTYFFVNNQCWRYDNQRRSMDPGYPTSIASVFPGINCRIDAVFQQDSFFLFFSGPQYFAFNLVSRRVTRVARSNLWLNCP
PROTOCOL: Compound was tested for its inhibitory activity against Matrix metalloprotease-8 (MMP-8) in adjuvant arthritic rat model of rheumatoid arthritis
pIC50: −log10 of the molar value.
PROPERTY LABEL: pIC50

>>> measurement("CNC(=O)[C@H](Cc1ccccc1)NC(=O)[C@H](CSC)NC(=O)CS")
8.22
>>> measurement("CNC(=O)[C@H](Cc1ccccc1)NC(=O)[C@H](C[S+](C)[O-])NC(=O)CS (stereo not given in full)")
6.32
>>> measurement("CNC(=O)[C@H](Cc1c[nH]c2ccccc12)NC(=O)[C@H](CC(C)C)NC(=O)CS")
7.10
>>> measurement("CNC(=O)[C@H](Cc1cscn1)NC(=O)[C@H](CC(C)C)NC(=O)CS")
7.92
>>> measurement("CNC(=O)[C@H](Cc1ccccc1)NC(=O)[C@@H](NC(=O)CS)C(C)O (stereo not given in full)")
5.39
